assay: Acute toxicity, testing in the mouse; type: in vivo; conditions: in vivo, ip, in rape oil, intraperitoneal administration, 10 days
MEASURED PARAMETER: LD50 at 240 h

## Task Bench note: what LD50 at 240 h did CC1=C(/C=C/C(C)=C/C=C/C(C)=C/C(=O)NC(C)C)C(C)(C)CCC1 [vitamin A acid isopropyl amide] show?
## Result > 4000 mg/kg

## Task Next entry: CNC(=O)/C=C(C)/C=C/C=C(C)/C=C/C1=C(C)CCCC1(C)C [vitamin A acid methyl amide]
## Result > 4000 mg/kg

## Task Next entry: CCN(CC)C(=O)/C=C(C)/C=C/C=C(C)/C=C/C1=C(C)CCCC1(C)C [Vitamin A acid diethyl amide, vitamin A acid diethyl amide]
## Result > 4000 mg/kg

## Task Next entry: CC1=C(/C=C/C(C)=C/C=C/C(C)=C/C(=O)NCCO)C(C)(C)CCC1 [Vitamin A acid ethanol amide, vitamin A acid ethanol amide]
## Result 1000 mg/kg

## Task Next entry: CC1=C(/C=C/C(C)=C/C=C/C(C)=C/C(=O)Nc2ccccc2)C(C)(C)CCC1 [vitamin A acid phenyl amide]
## Result > 4000 mg/kg

## Task Next entry: CCCCNC(=O)/C=C(C)/C=C/C=C(C)/C=C/C1=C(C)CCCC1(C)C [vitamin A acid n-butyl amide]
## Result > 4000 mg/kg

###

system: mouse; assay: Acute toxicity, testing in the mouse; format: in vivo; conditions: in rape oil, intraperitoneal administration, 10 days
MEASURED PARAMETER: LD90

## Task Bench note: what LD90 did CC1=C(/C=C/C(C)=C/C=C/C(C)=C/C(=O)Nc2ccccc2)C(C)(C)CCC1 [vitamin A acid phenyl amide] show?
## Result > 4000 mg/kg

## Task Next entry: CC1=C(/C=C/C(C)=C/C=C/C(C)=C/C(=O)NC(C)C)C(C)(C)CCC1 [vitamin A acid isopropyl amide]
## Result > 4000 mg/kg

## Task Next entry: CCCCNC(=O)/C=C(C)/C=C/C=C(C)/C=C/C1=C(C)CCCC1(C)C [vitamin A acid n-butyl amide]
## Result > 4000 mg/kg

## Task Next entry: CC1=C(/C=C/C(C)=C/C=C/C(C)=C/C(=O)NCCO)C(C)(C)CCC1 [Vitamin A acid ethanol amide, vitamin A acid ethanol amide]
## Result 1400 mg/kg

## Task Next entry: CCN(CC)C(=O)/C=C(C)/C=C/C=C(C)/C=C/C1=C(C)CCCC1(C)C [Vitamin A acid diethyl amide, vitamin A acid diethyl amide]
## Result > 4000 mg/kg

## Task Next entry: CNC(=O)/C=C(C)/C=C/C=C(C)/C=C/C1=C(C)CCCC1(C)C [vitamin A acid methyl amide]
## Result > 4000 mg/kg

###

assay: Acute toxicity, testing in the mouse; assay type: in vivo; conditions: in vivo, in rape oil, per os and intraperitoneal administration, 20 days
MEASURED PARAMETER: LD50 at 480 h

## Task Bench note: what LD50 at 480 h did CCNC(=O)/C=C(C)/C=C/C=C(C)/C=C/C1=C(C)CCCC1(C)C [Vitamin A acid ethyl amide, vitamin A acid monoethyl amide] show?
## Result > 4000 mg/kg

###

assay: Acute toxicity, testing in the rat; assay type: in vivo; conditions: in vivo, in rape oil, per os and intraperitoneal administration, 24 hrs.
MEASURED PARAMETER: LD50 at 24 h

## Task Bench note: what LD50 at 24 h did CCNC(=O)/C=C(C)/C=C/C=C(C)/C=C/C1=C(C)CCCC1(C)C [Vitamin A acid ethyl amide, vitamin A acid monoethyl amide] show?
## Result > 4000 mg/kg
